Target: Adrenergic receptor alpha-1 (Rattus norvegicus, UniProt P15823+P23944+P43140)
Sequence (P15823 whole entry): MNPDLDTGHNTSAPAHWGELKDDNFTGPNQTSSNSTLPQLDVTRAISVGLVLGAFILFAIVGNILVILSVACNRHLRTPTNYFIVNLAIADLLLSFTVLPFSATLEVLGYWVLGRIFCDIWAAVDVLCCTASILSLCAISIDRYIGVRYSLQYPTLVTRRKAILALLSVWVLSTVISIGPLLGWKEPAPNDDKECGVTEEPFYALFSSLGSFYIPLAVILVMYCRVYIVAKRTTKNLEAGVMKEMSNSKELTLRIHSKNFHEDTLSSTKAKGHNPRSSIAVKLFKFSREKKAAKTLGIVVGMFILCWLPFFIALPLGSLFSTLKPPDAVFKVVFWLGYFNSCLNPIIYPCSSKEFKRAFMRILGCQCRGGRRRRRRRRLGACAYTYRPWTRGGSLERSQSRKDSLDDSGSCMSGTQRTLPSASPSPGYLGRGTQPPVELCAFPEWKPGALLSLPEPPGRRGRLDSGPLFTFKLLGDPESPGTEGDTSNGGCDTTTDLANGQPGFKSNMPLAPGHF
Sequence (P23944 whole entry): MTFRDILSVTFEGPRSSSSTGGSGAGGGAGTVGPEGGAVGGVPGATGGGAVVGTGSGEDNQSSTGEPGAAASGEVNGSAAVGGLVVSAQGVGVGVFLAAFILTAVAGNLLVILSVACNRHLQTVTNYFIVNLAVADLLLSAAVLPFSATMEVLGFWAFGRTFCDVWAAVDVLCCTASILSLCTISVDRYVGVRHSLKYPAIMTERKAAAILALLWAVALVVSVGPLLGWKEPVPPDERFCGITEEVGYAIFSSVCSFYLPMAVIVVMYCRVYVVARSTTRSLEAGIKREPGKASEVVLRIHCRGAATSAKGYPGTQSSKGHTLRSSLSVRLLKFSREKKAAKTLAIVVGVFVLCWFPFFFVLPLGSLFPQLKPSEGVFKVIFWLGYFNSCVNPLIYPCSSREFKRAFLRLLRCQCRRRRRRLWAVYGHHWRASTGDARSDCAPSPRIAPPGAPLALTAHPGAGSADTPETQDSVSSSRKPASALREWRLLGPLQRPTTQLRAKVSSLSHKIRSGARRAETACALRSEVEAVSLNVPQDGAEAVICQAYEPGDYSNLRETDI
Sequence (P43140 whole entry): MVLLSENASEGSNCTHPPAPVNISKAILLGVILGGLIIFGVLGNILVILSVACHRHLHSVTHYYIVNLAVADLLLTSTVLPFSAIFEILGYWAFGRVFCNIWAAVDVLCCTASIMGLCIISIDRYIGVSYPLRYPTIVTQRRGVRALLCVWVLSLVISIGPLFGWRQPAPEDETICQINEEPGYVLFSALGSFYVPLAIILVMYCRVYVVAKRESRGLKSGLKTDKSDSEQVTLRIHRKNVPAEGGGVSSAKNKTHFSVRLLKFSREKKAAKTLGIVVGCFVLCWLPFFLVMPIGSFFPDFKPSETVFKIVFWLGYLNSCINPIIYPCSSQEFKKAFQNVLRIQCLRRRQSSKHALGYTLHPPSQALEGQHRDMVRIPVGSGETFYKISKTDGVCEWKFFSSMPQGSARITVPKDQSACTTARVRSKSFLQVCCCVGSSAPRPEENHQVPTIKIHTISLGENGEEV
Assay: Displacement of [3H]prazosine from Alpha-1 adrenergic receptor in Sprague-Dawley rat brain P2 membranes after […] by liquid scintillation counting
Measured Ki by item

{"columns": ["item.smiles", "Ki [nM]"],
 "data": [
  ["Cl.Clc1cccc2ccn(CC3=NCCN3)c12", 6.82],
  ["CCc1cccc2ccn(CC3=NCCN3)c12.Cl", 439.4],
  ["Brc1cccc2ccn(CC3=NCCN3)c12.Cl", 7.91]
]}

Hey, just so you know, these numbers are from ChEMBL document CHEMBL3797164.
